This section presents compounds with their documented activity coefficient values.
# experiment-description: activity coefficient (dimensionless); of the first substance listed, at infinite dilution; xn = mol fraction of the nth substance listed
# condition-notes: 348.15 K; 101 kPa; Liquid; Chromatography; x1 = 0
endpoint: activity coefficient

INSERT INTO results (compound, reported_result) VALUES
  ('C1CCCCC1 [cyclohexane] + CCCC[n+]1cccc(C)c1.O=S(=O)([O-])C(F)(F)F', 10.6),
  ('CCCCCCCCCC [decane] + CCCC[n+]1cccc(C)c1.O=S(=O)([O-])C(F)(F)F', 74.6),
  ('CCCCCCCC [octane] + CCCC[n+]1cccc(C)c1.O=S(=O)([O-])C(F)(F)F', 38.5),
  ('Cc1ccccc1 [toluene] + CCCC[n+]1cccc(C)c1.O=S(=O)([O-])C(F)(F)F', 1.85),
  ('C=CCCCCCC [oct-1-ene] + CCCC[n+]1cccc(C)c1.O=S(=O)([O-])C(F)(F)F', 20.8),
  ('CCCCCC [hexane] + CCCC[n+]1cccc(C)c1.O=S(=O)([O-])C(F)(F)F', 20),
  ('Cc1cccc(C)c1 [1,3-dimethylbenzene] + CCCC[n+]1cccc(C)c1.O=S(=O)([O-])C(F)(F)F', 2.71),
  ('CCCC(C)=O [pentan-2-one] + CCCC[n+]1cccc(C)c1.O=S(=O)([O-])C(F)(F)F', 1.39);

* * *

# experiment-description: activity coefficient (dimensionless); of the first substance listed, at infinite dilution; xn = mol fraction of the nth substance listed
# condition-notes: 348.15 K; 101 kPa; Liquid; Chromatography; x1 = 0
endpoint: activity coefficient

INSERT INTO assay_data (compound, reported_result) VALUES
  ('C1CCCCCC1 [cycloheptane] + CCCC[n+]1cccc(C)c1.O=S(=O)([O-])C(F)(F)F', 13.2),
  ('C=CCCCCC [1-heptene] + CCCC[n+]1cccc(C)c1.O=S(=O)([O-])C(F)(F)F', 15),
  ('CCCCCCC [heptane] + CCCC[n+]1cccc(C)c1.O=S(=O)([O-])C(F)(F)F', 27.5),
  ('Cc1ccc(C)cc1 [1,4-dimethylbenzene] + CCCC[n+]1cccc(C)c1.O=S(=O)([O-])C(F)(F)F', 2.62),
  ('CCOCC [diethyl ether] + CCCC[n+]1cccc(C)c1.O=S(=O)([O-])C(F)(F)F', 4.1),
  ('CO [methanol] + CCCC[n+]1cccc(C)c1.O=S(=O)([O-])C(F)(F)F', 0.57),
  ('COC(C)(C)C [2-methoxy-2-methylpropane] + CCCC[n+]1cccc(C)c1.O=S(=O)([O-])C(F)(F)F', 4.24),
  ('CCCCO [butan-1-ol] + CCCC[n+]1cccc(C)c1.O=S(=O)([O-])C(F)(F)F', 1.2);

* * *

# experiment-description: activity coefficient (dimensionless); of the first substance listed, at infinite dilution; xn = mol fraction of the nth substance listed
# condition-notes: 348.15 K; 101 kPa; Liquid; Chromatography; x1 = 0
Listed next: entries and their corresponding activity coefficient.
endpoint: activity coefficient

INSERT INTO assay_data (compound, reported_result) VALUES
  ('CCCO [propan-1-ol] + CCCC[n+]1cccc(C)c1.O=S(=O)([O-])C(F)(F)F', 0.958),
  ('C#CCCCCC [1-heptyne] + CCCC[n+]1cccc(C)c1.O=S(=O)([O-])C(F)(F)F', 4.46),
  ('c1ccccc1 [benzene] + CCCC[n+]1cccc(C)c1.O=S(=O)([O-])C(F)(F)F', 1.29),
  ('C=CCCCC [hex-1-ene] + CCCC[n+]1cccc(C)c1.O=S(=O)([O-])C(F)(F)F', 10.6),
  ('c1ccsc1 [thiophene] + CCCC[n+]1cccc(C)c1.O=S(=O)([O-])C(F)(F)F', 0.955),
  ('CCC(=O)CC [pentan-3-one] + CCCC[n+]1cccc(C)c1.O=S(=O)([O-])C(F)(F)F', 1.46),
  ('CC(C)=O [acetone] + CCCC[n+]1cccc(C)c1.O=S(=O)([O-])C(F)(F)F', 0.776),
  ('C#CCCCCCC [1-octyne] + CCCC[n+]1cccc(C)c1.O=S(=O)([O-])C(F)(F)F', 6.14),
  ('O [water] + CCCC[n+]1cccc(C)c1.O=S(=O)([O-])C(F)(F)F', 0.789),
  ('CCc1ccccc1 [ethylbenzene] + CCCC[n+]1cccc(C)c1.O=S(=O)([O-])C(F)(F)F', 2.81),
  ('CCCOCCC [dipropyl ether] + CCCC[n+]1cccc(C)c1.O=S(=O)([O-])C(F)(F)F', 9.35),
  ('C1CCOC1 [tetrahydrofuran] + CCCC[n+]1cccc(C)c1.O=S(=O)([O-])C(F)(F)F', 1.24),
  ('C1CCCC1 [cyclopentane] + CCCC[n+]1cccc(C)c1.O=S(=O)([O-])C(F)(F)F', 7.8),
  ('CCCCCCCCC [nonane] + CCCC[n+]1cccc(C)c1.O=S(=O)([O-])C(F)(F)F', 53.2),
  ('CCCCC [pentane] + CCCC[n+]1cccc(C)c1.O=S(=O)([O-])C(F)(F)F', 14.8),
  ('CCO [ethanol] + CCCC[n+]1cccc(C)c1.O=S(=O)([O-])C(F)(F)F', 0.79),
  ('Cc1ccccc1C [1,2-dimethylbenzene] + CCCC[n+]1cccc(C)c1.O=S(=O)([O-])C(F)(F)F', 2.29),
  ('C=CCCC [1-pentene] + CCCC[n+]1cccc(C)c1.O=S(=O)([O-])C(F)(F)F', 7.88),
  ('C1CCCCCCC1 [cyclooctane] + CCCC[n+]1cccc(C)c1.O=S(=O)([O-])C(F)(F)F', 16.5),
  ('C#CCCCC [1-hexyne] + CCCC[n+]1cccc(C)c1.O=S(=O)([O-])C(F)(F)F', 3.19);
